assay: NFAT Signaling Pathway (AID 444); settings: Jurkat NFAT-bla M1, carbachol, beta-lactamase ratio, 5 h; at 17.2 µM (top of the series) unless noted;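 note: carbachol stimulus at about its EC50 of 1 µM final; % is set by controls: 0 for no effect and ±100 for the full control effect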
Inconclusive results are not listed. Calls of active or inactive are those of the source. Calls come from the whole dose curve; as a rule, active = well fitted curve in either direction with a large enough effect (not every such curve was filed as active); inconclusive = small, poorly fitted or top-dose-only effect, or another doubt; inactive = flat fitted curve, though single readings scatter.
property-label: activity change, negative = inhibition

Cc1ccc(N(CC(O)CN(C)C)S(=O)(=O)c2ccccc2)cc1 (configuration not stated) :: -10.3% (inactive)
CCOc1ccc(-c2nnc3sc(COc4ccccc4)nn23)cc1 :: 4.76% (inactive)
S=c1[nH]nc(-c2ccco2)n1Cc1ccccc1 :: 3.89% (inactive)
O=C(c1ccc2c3c(cccc13)C(=O)N(O)C2=O)N1CCCCC1 :: 0.433% (inactive)
Cc1[nH]nc(-c2ccc(O)cc2O)c1Oc1ccccc1 :: -25.7% (inactive)

I would be grateful if you could provide activity change, negative = inhibition for each of the following entries.
1. COc1cc(/C=N/n2nnnc2N)ccc1O
2. CN1CCc2c(sc3c2C(=O)NC(c2ccco2)N3)C1 (configuration not stated)
3. CCCCNC(=O)c1cc2n(n1)C(C(F)(F)F)CC(c1ccccc1)N2 (configuration not stated)

1: -23.8% (inactive); 2: -3.54% (inactive); 3: 11.1% (inactive)

* * *

system: CP268; assay: qHTS profiling for inhibitors of Plasmodium falciparum proliferation (AID 504749); note: nearly all actives have a fitted effect of over 60% in size; settings: P. falciparum in erythrocytes, SYBR Green DNA, 72 h; series mostly up to 28.7 µM
Inconclusive results are not listed. Activity calls are given as the source filed them. Calls follow the shape of the dose curve; as a rule, active = well fitted inhibition curve with a large enough effect; inconclusive = small, poorly fitted or top-dose-only effect; inactive = flat fitted curve, though single readings scatter.
Tick one outcome: active, inactive

Observe how each entry below is paired with its result.
CCC(=O)O[C@]1(C(=O)CCl)[C@@H](C)CC2C3C[C@H](F)C4=CC(=O)C=CC4(C)[C@@]3(F)C(O)CC21C (stereo partly specified) :: active
O=C1Oc2ccccc2C(=O)C1C(CC(O)c1ccc(-c2ccc(Br)cc2)cc1)c1ccccc1 (stereo unspecified) :: inactive
CC1(C)O[C@@H]2C[C@H]3[C@@H]4CCC5=CC(=O)C=C[C@]5(C)[C@H]4C(O)C[C@]3(C)[C@]2(C(=O)CO)O1 (stereo partly specified) :: inactive
CO/N=C(/C(=O)N[C@@H]1C(=O)N2C(C(=O)O)=C(CSc3cnns3)CS[C@H]12)c1csc(N)n1 :: inactive
C[N+]12CCCC[C@@H]1CCC(=C(c1cccs1)c1cccs1)C2 (stereo partly specified) :: active
CCN(CC)CC(=O)Nc1c(C)cc(C)cc1C :: inactive

Hello, I am checking results. What call was entered for CCCCC(=O)OC1CCC2C3CCc4cc(O)ccc4C3CC[C@]12C (stereo partly specified) ?
inactive

// outcome(item) with item = CNC1C(O)C(OC2C(NC(=O)C(O)CN)CC(N)C(OC3OC(CN)C(O)C(O)C3O)C2O)OCC1(C)O (stereo unspecified)
inactive

Outcome logged for `C[C@]12CCC(=O)C=C1[C@@H]1C[C@H]1[C@H]1[C@@H]3[C@@H]4C[C@H]4[C@@]4(CCC(=O)O4)[C@@]3(C)CC[C@@H]12` in this assay:
inactive

Status in this test for CC[C@@H](C)C(N)C(=O)O (stereo partly specified) ?
inactive

* * *

test system: DIV17; experiment: qHTS profiling for inhibitors of Plasmodium falciparum proliferation (AID 504749); note: nearly all actives have a fitted effect of over 60% in size; conditions: P. falciparum in erythrocytes, SYBR Green DNA, 72 h; series mostly up to 28.7 µM
Results filed as inconclusive are left out. Activity calls are given as the source filed them. Calls come from the whole dose curve; as a rule, active = well fitted inhibition curve with a large enough effect; inconclusive = small, poorly fitted or top-dose-only effect; inactive = flat fitted curve, though single readings scatter.
// classify into active, inactive

CN(C)CC[C@@](O)(c1ccccc1)c1ccccc1Cl :: active
Cc1cnc(NC(=O)C2C(=O)c3ccccc3S(=O)(=O)N2C)s1 (stereo not drawn) :: inactive
O=C1CC[C@H](C(=O)N[C@@H]2C[C@H]2c2ccccc2)N1 :: inactive
C=C1CC[C@H](O)C/C1=C/C=C1\CCC[C@]2(C)[C@@H]([C@H](C)CCCC(C)(C)O)CC[C@@H]12 :: active
CC[C@@]1(O)C[C@H](O[C@H]2C[C@@H](N(C)C)[C@@H](O[C@H]3C[C@@H](O)[C@@H](O[C@H]4CCC(=O)[C@@H](C)O4)[C@@H](C)O3)[C@@H](C)O2)c2c(cc3c(c2O)C(=O)c2c(O)cccc2C3=O)[C@H]1C(=O)OC :: active

Fill in: this test's call for C=NC(C(=O)NC1C(=O)N2C1SC(C)(C)C2C(=O)O)c1ccccc1 (stereo not drawn) is ___
inactive

Call for entry `CO/N=C(/C(=O)N[C@@H]1C(=O)N2C(C(=O)O)=C(CSc3nnnn3C)CS[C@H]12)c1csc(N)n1` :
inactive

Per the assay record, what outcome was assigned to CC(C)(C)C(=O)OCC(=O)C1CCC2C3CCC4=CC(=O)CCC4(C)C3CCC12C (stereo not drawn) ?
inactive

* * *

tested on: CP215; assay: qHTS profiling for inhibitors of Plasmodium falciparum proliferation (AID 504749); note: nearly all actives have a fitted effect of over 60% in size; settings: P. falciparum in erythrocytes, SYBR Green DNA, 72 h; series mostly up to 28.7 µM
Results filed as inconclusive are left out. The source made the active and inactive calls. Calls follow the shape of the dose curve; as a rule, active = well fitted inhibition curve with a large enough effect; inconclusive = small, poorly fitted or top-dose-only effect; inactive = flat fitted curve, though single readings scatter.
Your response should consist of one outcome taken from active, inactive

Below are worked cases with known answers.
O=C(O)c1ccccc1-c1c2ccc(=O)cc-2oc2cc(O)ccc12 :: inactive
CO/N=C(/C(=O)N[C@@H]1C(=O)N2C(C(=O)O)=C(CSC(=O)c3ccco3)CSC12)c1csc(N)n1 (stereo partly drawn) :: inactive
Nc1nc(F)nc2c1ncn2[C@@H]1O[C@H](CO)[C@@H](O)[C@H]1O :: inactive
COc1cccc(OC)c1C(=O)NC1C(=O)N2C1SC(C)(C)C2C(=O)O (stereo not drawn) :: inactive
CCCSS/C(CCO)=C(/C)N(C=O)Cc1cnc(C)nc1N :: inactive

Okay, next one:
Please state the recorded outcome for this compound: CCC(C(=O)O)C1OC(C(C)C(O)C(C)C(=O)C(CC)C2OC3(C=CC(O)C4(CCC(C)(C5CCC(O)(CC)C(C)O5)O4)O3)C(C)CC2C)C(C)CC1C (stereo not drawn)
active

* * *

Tested on: CP262
Assay: qHTS profiling for inhibitors of Plasmodium falciparum proliferation (AID 504749); note: nearly all actives have a fitted effect of over 60% in size
Conditions: P. falciparum in erythrocytes, SYBR Green DNA, 72 h; series mostly up to 28.7 µM
Method: NIH National Institute of Allergy and Infectious Diseases [NIAID] NIH Chemical Genomics Center [NCGC] […] Because mature erythrocytes lack DNA, only Plasmodium-derived DNA is detected. NCGC Assay Protocol Summary: The SYBR Green viability assay was adapted from a method described previously (Plouffe et al., 2008). […] The following morning, fluorescence intensity at 485(14) nm excitation and 535(25) nm emission wavelengths was measured on an EnVision (Perkin Elmer) plate reader. […]
Records with an inconclusive call do not appear. The source made the active and inactive calls. Calls follow the shape of the dose curve; as a rule, active = well fitted inhibition curve with a large enough effect; inconclusive = small, poorly fitted or top-dose-only effect; inactive = flat fitted curve, though single readings scatter.
Hello, when you answer, please use one of the following outcomes: active, inactive

C/C=C\C[C@H](C)[C@H](O)[C@H]1C(=O)N[C@@H](CC)C(=O)N(C)CC(=O)N(C)[C@@H](CC(C)C)C(=O)N[C@@H](C(C)C)C(=O)N(C)[C@@H](CC(C)C)C(=O)N[C@@H](C)C(=O)N[C@@H](C)C(=O)N(C)[C@@H](CC(C)C)C(=O)N(C)[C@@H](CC(C)C)C(=O)N(C)[C@@H](C(C)C)C(=O)N1C :: active
CC1(C(=O)O)CCC2(C)CCC3(C)C(=CC(=O)C4C5(C)CCC(O)C(C)(C)C5CCC43C)C2C1 (stereo not given) :: inactive
C[C@H]1[C@@H](OC(=O)CCC(=O)O)OC2OC3(C)CC[C@H]4[C@H](C)CC[C@@H]1[C@@]24OO3 (stereo not given in full) :: active
CCCC[C@H]1C(=O)N(c2ccccc2)N(c2ccc(O)cc2)C1=O :: inactive
CC1OC(OC2CCC3(C)C(CCC4C3CC(O)C3(C)C(C5=CC(=O)OC5)CCC43O)C2)CC(O)C1OC1CC(O)C(OC2CC(O)C(OC3OC(CO)C(O)C(O)C3O)C(C)O2)C(C)O1 (stereo not given) :: inactive

Query: recorded result category for CC12C=CC(=O)C=C1[C@@H](F)CC1C2C(O)CC2(C)C1CC[C@]2(O)C(=O)CO (stereo not given in full) in this test
inactive

Given `CNc1cc(OC)c(C(=O)N[C@@H]2CCN(Cc3ccccc3)[C@H]2C)cc1Cl` , state the outcome it received in this test.
inactive

* * *

system: CP260; experiment: qHTS profiling for inhibitors of Plasmodium falciparum proliferation (AID 504749); note: nearly all actives have a fitted effect of over 60% in size; details: P. falciparum in erythrocytes, SYBR Green DNA, 72 h; series mostly up to 28.7 µM
Inconclusive results are not listed. The source made the active and inactive calls. Calls come from the whole dose curve; as a rule, active = well fitted inhibition curve with a large enough effect; inconclusive = small, poorly fitted or top-dose-only effect; inactive = flat fitted curve, though single readings scatter.
Output constraint: value belongs to active, inactive

The examples below pair each entry with its known result.
C[C@@H]1CC2C3CCC4=CC(=O)C=C[C@]4(C)[C@@]3(F)[C@@H](O)C[C@]2(C)[C@@]1(O)C(=O)COC(=O)c1cccc(S(=O)(=O)O)c1 (some centres not stated) :: inactive
CN1[C@H]2CC(OC(=O)[C@H](CO)c3ccccc3)C[C@H]1[C@H]1O[C@H]12 (some centres not stated) :: inactive
C[C@@H](O)[C@@H]1C(=O)N2C(C(=O)O)=C([C@H]3CCCO3)S[C@H]12 :: inactive

For `Cc1cncc(C(=O)O)[n+]1[O-]` , what call appears in the results of this test?
inactive

Assay result, entry CC(O)C(N)C(=O)O (configuration not stated) — outcome?
inactive

Query: recorded result category for CC1OC(OC2CCC3(C)C(CCC4C3CC(O)C3(C)C(C5=CC(=O)OC5)CCC43O)C2)CC(O)C1OC1CC(O)C(OC2CC(O)C(OC3OC(CO)C(O)C(O)C3O)C(C)O2)C(C)O1 (configuration not stated) in this test
inactive

Hi, sorry to bother you, what did the test record for `CC[C@@]1(O)C[C@H](O[C@H]2C[C@@H](N(C)C)[C@@H](O[C@H]3C[C@@H](O)[C@@H](O[C@H]4CCC(=O)[C@@H](C)O4)[C@@H](C)O3)[C@@H](C)O2)c2c(cc3c(c2O)C(=O)c2c(O)cccc2C3=O)[C@H]1C(=O)OC` ?
active
